Cited source for all entries: ChEMBL document CHEMBL1138970

Target: Human immunodeficiency virus type 1 reverse transcriptase (Human immunodeficiency virus 1)
Experiment: Inhibition of HIV1 reverse transcriptase RNA-dependent DNA polymerase activity
observed property: log10 of IC50 (log10 of the value in µM)
The base-10 logarithm of IC50, taken with IC50 in µM, is what appears here.

molecule	system under test	recorded value
Cc1cn([C@@H]2O[C@H](CO[Si](C)(C)C(C)(C)C)[C@@]3(OS(=O)(=O)C=C3N)[C@H]2O[Si](C)(C)C(C)(C)C)c(=O)n(CC2CO2)c1=O (some centres not stated)	Human immunodeficiency virus type 1 reverse transcriptase (Human immunodeficiency virus 1)	0.38
CC(C)(C)[Si](C)(C)OC[C@H]1O[C@@H](n2nncc2C(N)=O)[C@H](O[Si](C)(C)C(C)(C)C)[C@]12OS(=O)(=O)C=C2N	Human immunodeficiency virus type 1 reverse transcriptase (Human immunodeficiency virus 1)	0.92
Cc1cn([C@@H]2O[C@H](CO[Si](C)(C)C(C)(C)C)[C@@]3(OS(=O)(=O)C=C3N)[C@H]2O[Si](C)(C)C(C)(C)C)c(=O)n(CC(N)=O)c1=O	Human immunodeficiency virus type 1 reverse transcriptase (Human immunodeficiency virus 1)	0.23
Cc1cn([C@@H]2O[C@H](CO[Si](C)(C)C(C)(C)C)[C@@]3(OS(=O)(=O)C=C3N)[C@H]2O[Si](C)(C)C(C)(C)C)c(=O)n(/C=C\CO)c1=O	Human immunodeficiency virus type 1 reverse transcriptase (Human immunodeficiency virus 1)	0.20
Cc1cn([C@@H]2O[C@H](CO[Si](C)(C)C(C)(C)C)[C@@]3(OS(=O)(=O)C=C3N)[C@H]2O[Si](C)(C)C(C)(C)C)c(=O)n(CCCO)c1=O	Human immunodeficiency virus type 1 reverse transcriptase (Human immunodeficiency virus 1)	-0.15

Qu. Hello, please tell me recorded log10 of IC50 for this one: `Cc1cn([C@@H]2O[C@H](CO[Si](C)(C)C(C)(C)C)[C@@]3(OS(=O)(=O)C=C3N)[C@H]2O[Si](C)(C)C(C)(C)C)c(=O)n(CCCN(CC(=O)O)CC(=O)O)c1=O`
Ans. 1.03

====

Recorded measurements of IC50, one per entry
Biological target: Human immunodeficiency virus type 1 reverse transcriptase (Human immunodeficiency virus 1)
Assay: Inhibition of HIV1 reverse transcriptase RNA-dependent DNA polymerase activity
Response body: numeric value in µM, unit text excluded.

molecule smiles	system under test	unit tag	recorded value
Cc1cn([C@@H]2O[C@H](CO[Si](C)(C)C(C)(C)C)[C@@]3(OS(=O)(=O)C=C3N)[C@H]2O[Si](C)(C)C(C)(C)C)c(=O)n(CC(=O)O)c1=O	Human immunodeficiency virus type 1 reverse transcriptase (Human immunodeficiency virus 1)	µM	3.2

Qu. Output reported IC50 of the compound `CCc1cn([C@@H]2O[C@H](CO[Si](C)(C)C(C)(C)C)[C@@]3(OS(=O)(=O)C=C3N)[C@H]2O[Si](C)(C)C(C)(C)C)c(=O)[nH]c1=O` on Human immunodeficiency virus type 1 reverse transcriptase (Human immunodeficiency virus 1).
Ans. 3.4

Qu. Provide IC50, tested on Human immunodeficiency virus type 1 reverse transcriptase (Human immunodeficiency virus 1), for `Cc1cn([C@@H]2O[C@H](CO[Si](C)(C)C(C)(C)C)[C@@]3(OS(=O)(=O)C=C3N)[C@H]2O[Si](C)(C)C(C)(C)C)c(=O)n(CC(=O)N[C@@H](CC(=O)O)C(=O)O)c1=O` .
Ans. 9.1
